Target: UniProt P10721
Sequence (P10721 26-976): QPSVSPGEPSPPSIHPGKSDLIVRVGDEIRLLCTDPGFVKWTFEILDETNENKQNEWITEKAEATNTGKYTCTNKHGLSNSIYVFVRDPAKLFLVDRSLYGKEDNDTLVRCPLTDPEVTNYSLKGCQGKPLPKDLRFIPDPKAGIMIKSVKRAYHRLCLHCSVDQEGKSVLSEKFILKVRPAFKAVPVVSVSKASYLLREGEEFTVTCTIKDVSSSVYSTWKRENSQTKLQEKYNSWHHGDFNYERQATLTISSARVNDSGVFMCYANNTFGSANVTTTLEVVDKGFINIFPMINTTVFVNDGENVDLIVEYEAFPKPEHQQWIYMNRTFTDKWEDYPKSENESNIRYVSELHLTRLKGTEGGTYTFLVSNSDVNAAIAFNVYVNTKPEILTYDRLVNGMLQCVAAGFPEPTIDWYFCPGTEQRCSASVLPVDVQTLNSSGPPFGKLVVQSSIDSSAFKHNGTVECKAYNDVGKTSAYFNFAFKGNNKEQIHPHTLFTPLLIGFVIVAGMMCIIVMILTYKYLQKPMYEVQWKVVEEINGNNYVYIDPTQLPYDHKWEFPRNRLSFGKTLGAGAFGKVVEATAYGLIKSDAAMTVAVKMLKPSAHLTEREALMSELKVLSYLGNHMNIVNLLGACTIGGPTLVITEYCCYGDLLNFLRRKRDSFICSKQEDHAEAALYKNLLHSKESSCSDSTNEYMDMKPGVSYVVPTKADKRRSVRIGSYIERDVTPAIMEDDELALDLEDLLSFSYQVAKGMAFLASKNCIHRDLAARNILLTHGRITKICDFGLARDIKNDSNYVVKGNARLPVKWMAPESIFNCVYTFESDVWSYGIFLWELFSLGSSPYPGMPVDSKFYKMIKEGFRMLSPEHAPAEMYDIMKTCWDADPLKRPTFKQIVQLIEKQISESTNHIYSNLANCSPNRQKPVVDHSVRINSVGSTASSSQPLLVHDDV
Experiment: KIT in vitro kinase activity assay (HTRF kinEASE TK)
Type: biochemical
Details: compound 10 nM; read-out: KIT inhibition rate, 10 nM
Record rule met whenever inhibition at 0.01 µM is at 20% or higher; record rule not met when lower.

// known answers, use as guide
>>> discrete_label("Cn1cc(-c2cncc(N[C@H]3CCc4c(C(=O)Nc5ccc(C(F)(F)F)nc5)cccc43)c2)cn1 [Compound 14ah]")
"rule not met"
>>> discrete_label("CN(c1cncc(-c2cnn(C)c2)c1)[C@H]1CCc2c(C(=O)Nc3cncc(Cl)c3)cccc21")
"rule not met"
>>> discrete_label("Cn1ncc2ncc(N[C@H]3CCc4c(Nc5cc(C(C)(C)C)on5)cccc43)nc21")
"rule met"

Query: I'd appreciate it if you could say whether Cn1cc(-c2cncc(N[C@H]3CCc4c(C(=O)Nc5nn(C)c6ccccc56)cccc43)n2)cn1 [Compound 27g] has inhibition at 0.01 µM at least equal to 20%.
Response: rule met

Query: I'd appreciate it if you could say whether Cn1cc(-c2cncc(O[C@H]3CCc4c(C(=O)Nc5cncc(Cl)c5)cccc43)c2)cn1 [Compound 19a] has inhibition at 0.01 µM at least equal to 20%.
Response: rule met

====

Target: DDR1 (Homo sapiens)
Sequence (Q08345 19-913): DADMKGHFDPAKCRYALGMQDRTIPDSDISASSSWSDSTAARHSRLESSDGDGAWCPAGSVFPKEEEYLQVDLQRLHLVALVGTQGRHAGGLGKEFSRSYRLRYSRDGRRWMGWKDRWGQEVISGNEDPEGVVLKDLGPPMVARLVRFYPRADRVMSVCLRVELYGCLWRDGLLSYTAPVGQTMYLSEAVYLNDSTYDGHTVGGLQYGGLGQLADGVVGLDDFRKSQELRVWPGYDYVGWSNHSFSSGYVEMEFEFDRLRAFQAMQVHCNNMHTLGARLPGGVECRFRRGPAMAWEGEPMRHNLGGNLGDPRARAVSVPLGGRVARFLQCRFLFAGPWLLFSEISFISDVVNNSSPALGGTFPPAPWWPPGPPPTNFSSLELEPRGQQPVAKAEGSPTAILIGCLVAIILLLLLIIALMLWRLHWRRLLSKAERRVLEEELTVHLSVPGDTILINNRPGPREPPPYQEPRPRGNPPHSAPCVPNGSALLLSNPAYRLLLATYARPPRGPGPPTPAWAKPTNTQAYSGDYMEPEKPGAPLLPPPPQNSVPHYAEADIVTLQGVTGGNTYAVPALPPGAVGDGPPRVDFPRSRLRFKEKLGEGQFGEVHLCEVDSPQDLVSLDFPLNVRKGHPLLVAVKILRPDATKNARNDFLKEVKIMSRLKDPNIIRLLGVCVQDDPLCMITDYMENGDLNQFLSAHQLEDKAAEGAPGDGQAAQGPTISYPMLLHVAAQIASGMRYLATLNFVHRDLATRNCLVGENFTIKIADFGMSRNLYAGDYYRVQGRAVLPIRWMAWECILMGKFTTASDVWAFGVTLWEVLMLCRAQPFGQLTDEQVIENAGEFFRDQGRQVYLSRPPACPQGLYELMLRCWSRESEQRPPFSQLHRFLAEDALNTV
Test: DDR1 in vitro kinase activity assay (LanthaScreen Eu-anti-GST antibody / Kinase Tracer 178)
Assay type: binding
Details: compound 10 nM; read-out: DDR1 inhibition rate, 10 nM
Protocol: DDR1 in vitro Kinase Activity Assay: • ENVISION (Perkinelmer, 2104) • White 384-well MicroPlate (Cat #264706, Nunc) • DDR1 (Cat #PV6047, Invitrogen) • 5× Kinase Buffer A (Cat #PV3189, Invitrogen) • Kinase Tracer 178 (Cat #PV5593, Invitrogen) • LanthaScreen® Eu-anti-GST Antibody (Cat #PV5594, Invitrogen) The compounds to be tested were tested at two concentrations of 100 nM and 10 nM. […]
METRIC: inhibition at 0.01 µM
Answer by giving the amount and then stating its unit.

// known answers, use as guide
>>> endpoint_result("Cn1cc2ncc(O[C@H]3CCc4c(C(=O)Nc5nn(C)c6ccccc56)cccc43)cc2n1 [Compound 76al]")
"98%"
>>> endpoint_result("Cn1ncc2ncc(O[C@H]3CCc4c(C(=O)Nc5cncc(Cl)c5)cccc43)cc21 [Compound 76ac]")
"72.5%"
>>> endpoint_result("Cn1cc(-c2cncc(N[C@H]3CCc4c(C(=O)Nc5ccc(C(F)(F)F)nc5)cccc43)c2)cn1 [Compound 14ah]")
"37.9%"
>>> endpoint_result("Cn1cc2ncc(N[C@H]3CCc4c(C(=O)Nc5nc(C6CC6)cs5)cccc43)cc2n1 [Compound 74h]")
"57.2%"
>>> endpoint_result("CN(c1cnc2cn(C)nc2c1)[C@H]1CCc2c(C(=O)Nc3nn(C)c4ccccc34)cccc21 [Compound 80l]")
"75.1%"
>>> endpoint_result("CN1CCc2nc(NC(=O)c3cccc4c3CC[C@@H]4Nc3cncc(-c4cnn(C)c4)c3)sc2C1 [Compound 14ba]")
"32.4%"

Query: Please supply the value of reported inhibition at 0.01 µM for the item CN1CCc2nc(NC(=O)c3cccc4c3CC[C@@H]4Oc3cncc(-c4cnn(C)c4)c3)sc2C1 [Compound 19f]
Response: 23.1%

Query: Please supply the value of reported inhibition at 0.01 µM for the item Cc1cccc(NC(=O)c2cccc3c2CC[C@@H]3Oc2cnc3cn(C)nc3c2)n1 [Compound 76bd]
Response: 21.2%

Query: Please supply the value of reported inhibition at 0.01 µM for the item Cn1cc(-c2cncc(O[C@H]3CCc4c(C(=O)Nc5cccc(C6CC6)c5)cccc43)c2)cn1 [Compound 19b]
Response: 84%

Query: Please supply the value of reported inhibition at 0.01 µM for the item Cn1cc2ncc(O[C@H]3CCc4c(C(=O)Nc5cncc(Cl)c5)cccc43)cc2n1 [Compound 76ai]
Response: 94.2%

Query: Please supply the value of reported inhibition at 0.01 µM for the item Cn1ncc2ncc(N[C@H]3CCc4c(Nc5cc(C(C)(C)C)on5)cccc43)nc21
Response: 20%

Query: Please supply the value of reported inhibition at 0.01 µM for the item Cn1ncc2ncc(N[C@H]3CCc4c(C(=O)Nc5cccc(C6CC6)c5)cccc43)cc21
Response: 72.5%

Query: Please supply the value of reported inhibition at 0.01 µM for the item Cn1cc2ncc(O[C@H]3CCc4c(C(=O)Nc5nn(C)c6cccc(F)c56)cccc43)cc2n1 [Compound 76aw]
Response: 64%

Query: Please supply the value of reported inhibition at 0.01 µM for the item CN(C)Cc1cncc(NC(=O)c2cccc3c2CC[C@@H]3Oc2cncc(-c3cnn(C)c3)c2)c1 [Compound 19h]
Response: 65.3%

Query: Please supply the value of reported inhibition at 0.01 µM for the item Cn1cc(-c2cncc(N[C@H]3CCc4c(Nc5noc(C(C)(C)C)n5)cccc43)c2)cn1 [Compound 42o]
Response: 4.1%

Query: Please supply the value of reported inhibition at 0.01 µM for the item Cc1cncc(NC(=O)c2cccc3c2CC[C@@H]3Nc2cncc(-c3cnn(C)c3)c2)c1 [Compound 14as]
Response: 94.7%

Query: Please supply the value of reported inhibition at 0.01 µM for the item Cn1cc(-c2cnc(N)c(O[C@H]3CCc4c(C(=O)Nc5cccc(C6CC6)c5)cccc43)c2)cn1
Response: 88.6%

Query: Please supply the value of reported inhibition at 0.01 µM for the item Cn1cc(-c2cncc(N[C@H]3CCc4c(Nc5cc(C(C)(C)C)on5)cccc43)c2)cn1
Response: 20.2%

Query: Please supply the value of reported inhibition at 0.01 µM for the item Cn1cc(-c2cncc(O[C@H]3CCc4c(C(=O)Nc5cncc(Cl)c5)cccc43)c2)cn1 [Compound 19a]
Response: 69.4%

Query: Please supply the value of reported inhibition at 0.01 µM for the item Cc1cccc(C(=O)Nc2cccc3c2CC[C@@H]3Oc2cncc(-c3cnn(C)c3)c2)c1
Response: 15.9%

Query: Please supply the value of reported inhibition at 0.01 µM for the item Cc1cccc(NC(=O)c2cccc3c2CC[C@@H]3Nc2cncc(-c3cnn(C)c3)c2)c1
Response: 90.2%

Query: Please supply the value of reported inhibition at 0.01 µM for the item Cn1cc(-c2cncc(N[C@H]3CCc4c(C(=O)Nc5nn(C)c6ccccc56)cccc43)n2)cn1 [Compound 27g]
Response: 92.1%

====

Molecular target: KDR (VEGFR2) (Homo sapiens)
Test: KDR (VEGFR2) in vitro kinase activity assay (HTRF kinEASE TK)
Format: biochemical
Conditions: compound 10 nM; read-out: VEGFR2 inhibition rate, 10 nM
As shown below, each of these molecules has a reported inhibition at 0.01 µM value.
Give a bare numeral; the unit % is implied.

>>> endpoint_result("Cn1cc2ncc(O[C@H]3CCc4c(C(=O)Nc5nn(C)c6ccccc56)cccc43)cc2n1 [Compound 76al]")
99.1
>>> endpoint_result("Cc1cccc(NC(=O)c2cccc3c2CC[C@@H]3Nc2cncc(-c3cnn(C)c3)c2)c1")
95.3
>>> endpoint_result("CN(c1cncc(-c2cnn(C)c2)c1)[C@H]1CCc2c(C(=O)Nc3cncc(Cl)c3)cccc21")
22.3
>>> endpoint_result("Cc1cc(NC(=O)c2cccc3c2CC[C@@H]3Oc2cncc(-c3cnn(C)c3)c2)cc(C)n1 [Compound 19k]")
53

Query: GET inhibition at 0.01 µM where system = KDR (VEGFR2) (Homo sapiens) and item = CN1CCc2nc(NC(=O)c3cccc4c3CC[C@@H]4Oc3cncc(-c4cnn(C)c4)c3)sc2C1 [Compound 19f]
Response: 22.7

Query: GET inhibition at 0.01 µM where system = KDR (VEGFR2) (Homo sapiens) and item = CN(c1cnc2cn(C)nc2c1)[C@H]1CCc2c(C(=O)Nc3cncc(Cl)c3)cccc21 [Compound 80k]
Response: 43

Query: GET inhibition at 0.01 µM where system = KDR (VEGFR2) (Homo sapiens) and item = CN(C)Cc1cncc(NC(=O)c2cccc3c2CC[C@@H]3Oc2cncc(-c3cnn(C)c3)c2)c1 [Compound 19h]
Response: 24.6

Query: GET inhibition at 0.01 µM where system = KDR (VEGFR2) (Homo sapiens) and item = Cc1cncc(NC(=O)c2cccc3c2CC[C@@H]3Nc2cncc(-c3cnn(C)c3)c2)c1 [Compound 14as]
Response: 88.4

Query: GET inhibition at 0.01 µM where system = KDR (VEGFR2) (Homo sapiens) and item = Cc1cccc(C(=O)Nc2cccc3c2CC[C@@H]3Oc2cncc(-c3cnn(C)c3)c2)c1
Response: 60

====

As shown below, each of these molecules has a reported inhibition at 0.1 µM value.
Molecular target: KDR (VEGFR2) (Homo sapiens, UniProt P35968)
Sequence (P35968 20-1356): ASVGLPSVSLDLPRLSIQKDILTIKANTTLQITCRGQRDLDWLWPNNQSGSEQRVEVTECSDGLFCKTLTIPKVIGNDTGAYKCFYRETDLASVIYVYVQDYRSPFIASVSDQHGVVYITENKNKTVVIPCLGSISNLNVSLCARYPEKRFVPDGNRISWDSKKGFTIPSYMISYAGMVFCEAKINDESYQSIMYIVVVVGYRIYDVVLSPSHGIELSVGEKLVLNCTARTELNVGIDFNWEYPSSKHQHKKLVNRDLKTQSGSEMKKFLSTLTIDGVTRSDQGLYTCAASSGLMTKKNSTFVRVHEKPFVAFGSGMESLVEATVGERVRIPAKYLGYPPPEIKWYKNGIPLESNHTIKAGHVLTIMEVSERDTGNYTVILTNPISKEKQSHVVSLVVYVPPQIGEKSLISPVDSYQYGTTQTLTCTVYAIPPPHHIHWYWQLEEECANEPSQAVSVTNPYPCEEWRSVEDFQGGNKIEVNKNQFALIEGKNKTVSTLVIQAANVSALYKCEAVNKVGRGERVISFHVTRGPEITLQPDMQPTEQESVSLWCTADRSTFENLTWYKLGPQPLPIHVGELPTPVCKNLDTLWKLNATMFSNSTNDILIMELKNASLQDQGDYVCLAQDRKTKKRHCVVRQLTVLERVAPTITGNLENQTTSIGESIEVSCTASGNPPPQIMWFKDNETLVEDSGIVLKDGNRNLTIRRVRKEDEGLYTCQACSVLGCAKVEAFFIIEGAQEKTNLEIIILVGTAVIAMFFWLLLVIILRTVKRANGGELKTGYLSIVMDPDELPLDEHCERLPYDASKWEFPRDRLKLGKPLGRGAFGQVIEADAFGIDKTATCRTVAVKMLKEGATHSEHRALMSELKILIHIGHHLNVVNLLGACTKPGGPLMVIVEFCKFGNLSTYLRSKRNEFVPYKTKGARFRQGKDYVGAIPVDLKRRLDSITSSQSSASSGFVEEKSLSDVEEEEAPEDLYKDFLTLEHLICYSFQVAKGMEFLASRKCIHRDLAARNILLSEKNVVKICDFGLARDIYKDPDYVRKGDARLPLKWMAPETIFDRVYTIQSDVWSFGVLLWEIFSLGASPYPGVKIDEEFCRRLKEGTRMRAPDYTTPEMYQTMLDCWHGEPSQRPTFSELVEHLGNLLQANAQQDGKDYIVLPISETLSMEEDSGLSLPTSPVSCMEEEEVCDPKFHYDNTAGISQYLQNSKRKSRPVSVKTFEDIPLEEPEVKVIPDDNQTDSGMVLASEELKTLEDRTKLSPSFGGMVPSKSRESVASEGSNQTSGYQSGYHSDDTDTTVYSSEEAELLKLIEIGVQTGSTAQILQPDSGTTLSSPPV
Assay: KDR (VEGFR2) in vitro kinase activity assay (HTRF kinEASE TK)
Type: biochemical
Settings: compound 100 nM; read-out: VEGFR2 inhibition rate, 100 nM
Give a bare numeral; the unit % is implied.

// known answers, use as guide
>>> endpoint_result("Cn1ncc2ncc(O[C@H]3CCc4c(C(=O)Nc5cncc(Cl)c5)cccc43)cc21 [Compound 76ac]")
98.3
>>> endpoint_result("CN1CCc2nc(NC(=O)c3cccc4c3CC[C@@H]4Nc3cncc(-c4cnn(C)c4)c3)sc2C1 [Compound 14ba]")
82.6
>>> endpoint_result("Cn1cc(-c2cncc(N[C@H]3CCc4c(C(=O)Nc5ccc(C(F)(F)F)nc5)cccc43)c2)cn1 [Compound 14ah]")
58.1
>>> endpoint_result("Cn1cc(-c2cncc(O[C@H]3CCc4c(C(=O)Nc5cccc(C6CC6)c5)cccc43)c2)cn1 [Compound 19b]")
102
>>> endpoint_result("Cc1cncc(NC(=O)c2cccc3c2CC[C@@H]3Nc2cncc(-c3cnn(C)c3)c2)c1 [Compound 14as]")
102

Query: Please supply the value of reported inhibition at 0.1 µM for the item Cc1cccc(C(=O)Nc2cccc3c2CC[C@@H]3Oc2cncc(-c3cnn(C)c3)c2)c1
Response: 97.3

Query: Please supply the value of reported inhibition at 0.1 µM for the item Cc1cccc(NC(=O)c2cccc3c2CC[C@@H]3Nc2cncc(-c3cnn(C)c3)c2)c1
Response: 99.5

Query: Please supply the value of reported inhibition at 0.1 µM for the item Cc1cc(NC(=O)c2cccc3c2CC[C@@H]3Oc2cncc(-c3cnn(C)c3)c2)cc(C)n1 [Compound 19k]
Response: 99.1
